# Target entity: Ubiquitin carboxyl-terminal hydrolase isozyme L1 (Homo sapiens) (UniProt P09936)
# Sequence (P09936 whole entry, looked up): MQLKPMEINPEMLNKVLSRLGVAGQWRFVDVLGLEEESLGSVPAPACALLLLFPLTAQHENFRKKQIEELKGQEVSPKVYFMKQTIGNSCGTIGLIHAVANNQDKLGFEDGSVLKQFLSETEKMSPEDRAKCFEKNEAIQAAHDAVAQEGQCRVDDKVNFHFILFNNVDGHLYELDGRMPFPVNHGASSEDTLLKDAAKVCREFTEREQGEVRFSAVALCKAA
# Assay method text: blocks human UCHL1 ubiquitin-rhodamine cleavage (AID 1645859)
# Condition set: purified UCHL1, Ub-rhodamine cleavage fluorescence; at 20 µM; hits give high values
Among all 47,000 compounds or so, about 95 (0.2%) were called active. The sample holds actives, similar compounds and a random draw of the others, so the mix is not that of the screen.
inhibition values, listed per item

As a guide, the following entries are already answered.
Molecule	inhibition
COc1ccccc1C(=O)NCC(c1ccc2c(c1)CCCN2C)N1CCCC1 (stereo unspecified)	-73.4% (inactive)
Cn1c(=O)c2c(-c3ccc(C(C)(C)C)cc3)n(-c3ccccc3Cl)cc2n(C)c1=O	3.67% (inactive)
O=C1CC2(C(=O)N(Cc3cccc(Cl)c3)c3ccccc32)c2cn[nH]c2N1 (stereo unspecified)	-5.23% (inactive)
O=c1ccc(S(=O)(=O)N2CCCCCC2)cn1Cc1ccccc1	-3.73% (inactive)
Fc1cc(F)cc(-c2noc3ncnc(N(Cc4ccco4)CC4CCCO4)c23)c1 (stereo unspecified)	0.782% (inactive)

QUERY: In one line, give reported inhibition of the entry `O=C(O)c1ccccc1-c1ccccc1C(=O)Nc1ccccc1O` .
RESULT: 1.93% (inactive)

QUERY: Using the record for `O=C1NC[C@@H](Cc2ccccc2)NC(=O)C2(C/C=C/COc3ccccc31)CCNCC2` , state its measured inhibition.
RESULT: 2.07% (inactive)

QUERY: Recall and state the measured inhibition for COc1ccc(C(=O)N2CCCC(c3ccnc(=O)[nH]3)C2)cn1 (stereo unspecified) .
RESULT: -1.26% (inactive)

QUERY: Let me know recorded inhibition for `N#Cc1cnc2ccccc2c1N1CCC(C(=O)N2CCCCC2)CC1` , thanks.
RESULT: -2% (inactive)

QUERY: Given C=C1CCC2[C@](C)(CCC[C@]2(C)C(=O)OC)[C@H]1CCc1ccoc1/C=C/C(=O)O (stereo partly specified) , respond with its inhibition.
RESULT: 9.97% (inactive)

====

Entries annotated with measured inhibition
# Target entity: Ubiquitin carboxyl-terminal hydrolase isozyme L1 (Homo sapiens)
# Assay method text: blocks human UCHL1 ubiquitin-rhodamine cleavage (AID 1645859)
# Condition set: purified UCHL1, Ub-rhodamine cleavage fluorescence; at 20 µM; hits give high values
Among all 47,000 compounds or so, about 95 (0.2%) were called active. The sample holds actives, similar compounds and a random draw of the others, so the mix is not that of the screen.
The reply should be a number in %, with the unit left off.

Molecule	inhibition, %
C/C=C(\C)C(=O)O[C@@H]1C[C@@]2(C)CC[C@H](C(C)C)[C@@]2(O)CC[C@@]1(C)O	-2.54

// next entry
QUERY: Please report inhibition for the following molecule: Cc1nccn1-c1cccc(C2CCCN(c3ncccn3)C2)n1 (stereo unspecified)
RESULT: -0.888

====

Here the recorded inhibition is given for each entry.
# Target entity: Ubiquitin carboxyl-terminal hydrolase isozyme L1 (Homo sapiens) (UniProt P09936)
# Assay method text: blocks human UCHL1 ubiquitin-rhodamine cleavage (AID 1645859)
# Condition set: purified UCHL1, Ub-rhodamine cleavage fluorescence; at 20 µM; hits give high values
Among all 47,000 compounds or so, about 95 (0.2%) were called active. For the sample, actives were picked, then their nearest neighbours and some compounds at random.
Please respond with the number in % and leave the unit unwritten.

Molecule	Property label	Unit symbol	Observed value
Cc1ccc(CNC(=O)c2cc(=O)nc3sc(N4CCCC(C)C4)nn23)cc1 (stereo unspecified)	inhibition	%	0.655
Cc1nc(C2CCN(C(=O)C(C)(C)C)CC2)cc(N2C(=O)OCC2C(C)C)n1 (stereo unspecified)	inhibition	%	-3.66
Cc1nc2ccccc2n1CC(O)c1ccccc1 (stereo unspecified)	inhibition	%	-0.449
CCCN1CCC(Nc2ncnc3scc(-c4ccccc4)c23)CC1	inhibition	%	-1.59

QUERY: State, in one line, measured inhibition of `Cc1ccc(Cn2cc(-c3noc(-c4ccccn4)n3)nn2)cc1`
RESULT: -0.677

QUERY: Consider the molecule CNc1cncc(C2CCCN2S(=O)(=O)N2CCCC2)n1 (stereo unspecified) . State its measured inhibition.
RESULT: 1.24

QUERY: Give inhibition for the following molecule: O=C1NC(=O)N2Cc3ccccc3CN(C(=O)c3ccc(Cl)cc3)CC12 (stereo unspecified)
RESULT: 0.947

QUERY: Identify measured inhibition corresponding to `COCCCn1c(C(=O)N2CCC(C)CC2)cc2c(=O)n3ccccc3nc21`
RESULT: -5.93

QUERY: Read the entry `O=C(Cn1cnc2cc3c(cc21)OCCO3)NCCc1ccccc1` and write its reported inhibition.
RESULT: -0.00331

QUERY: Answer with reported inhibition of `CC(=O)c1cccc(NC(=O)CCN(c2cc(C)cc(C)c2)S(=O)(=O)c2ccc(Cl)cc2)c1`
RESULT: 5.56

QUERY: Look up and report measured inhibition for this entry: `COCC(=O)N1CCN2C[C@H]1C(=O)NC[C@H]1O[C@@H](CC(=O)N[C@H]3C[C@@H](C2=O)N(Cc2ccc(OC(F)(F)F)cc2)C3)[C@H](O)[C@@H]1O`
RESULT: -6.2

QUERY: Give inhibition for the following molecule: `c1coc(CNc2nc(Nc3cccc4ccccc34)nc3ccccc23)c1`
RESULT: 5.02

QUERY: For the molecule `O=C(Nc1nnc(-c2cccc([N+](=O)[O-])c2)o1)C1CCN(S(=O)(=O)c2ccc3c(c2)CCC3)CC1` , give its measured inhibition value.
RESULT: 5.08

QUERY: Query inhibition for `COc1cc(Cl)c(NC(=O)c2cc(-c3ccccn3)n[nH]2)c(OC)c1`
RESULT: 8.97

QUERY: Input CCOC(=O)C(Cc1ccccc1)NC(=O)CCC(=O)c1ccc(OC)cc1 (stereo unspecified) , output reported inhibition.
RESULT: 1.4

QUERY: Give inhibition for Cc1nc2c(c(=O)[nH]1)C(c1ccc(OCc3ccccc3F)cc1)CC(=O)N2 (stereo unspecified)
RESULT: -1.23

QUERY: Report inhibition for `Cn1cc2nc(SCC(=O)NCc3ccc(Cl)cc3)n(CC3CC3)c(=O)c2n1`
RESULT: -3.8

====

# Target entity: Ubiquitin carboxyl-terminal hydrolase isozyme L1 (Homo sapiens)
# Assay method text: blocks human UCHL1 ubiquitin-rhodamine cleavage (AID 1645859)
# Condition set: purified UCHL1, Ub-rhodamine cleavage fluorescence; at 20 µM; hits give high values
Hit rate of the full screen: of about 47,000 compounds, about 95 (0.2%) were called active. The entries come from a sample that favours actives as a whole.
Quick list: inhibition per entry.
Dear colleague, please return just the value in %, with no unit written.

Reference set (3 entries):
Compound	inhibition [%]
Cc1ccc(CNC(=O)CCCn2c(=O)c3sccc3n(CC(=O)OCc3ccccc3)c2=O)cc1	-0.426
CCC(=O)c1c(-c2ccc(F)cc2)c2c3n(c(-c4ccc(Cl)c(Cl)c4)cn13)CCCC2	3.03
COc1ccc(C)cc1NC(=O)c1coc(NC(=O)c2ccco2)n1	-2.46

QUERY: Answer with the recorded inhibition of `Cc1c(NC(=O)c2ccc(C(C)(C)C)cc2)c(-n2cnnc2)nn1C` only.
RESULT: -0.768

QUERY: Please report inhibition for the following compound: `Fc1ccccc1Cn1c(COc2ccccc2)nc2ccccc21`
RESULT: 8.93

QUERY: Supply recorded inhibition for `Cc1oc(C2CCN(C(=O)NC3CCCC3)CC2)nc1C(=O)N(C)C` here.
RESULT: 1.1

====

# Target entity: Ubiquitin carboxyl-terminal hydrolase isozyme L1 (Homo sapiens) (UniProt P09936)
# Assay method text: blocks human UCHL1 ubiquitin-rhodamine cleavage (AID 1645859)
# Condition set: purified UCHL1, Ub-rhodamine cleavage fluorescence; at 20 µM; hits give high values
Screen size: about 47,000 compounds; about 95 (0.2%) were called active. This excerpt belongs to a sample that is enriched for actives.
Property label: inhibition (%)
Numeric only. Scale: %

These solved cases illustrate the format of a correct answer.
Compound	Property label	Observed value
O=C(CCc1ccncc1)N(Cc1ccc2c(c1)OCO2)C1CCCCC1	inhibition	-0.303
COc1cccc(CN2CC[C@@H]3CNS(=O)(=O)[C@@H]3CC2)c1	inhibition	5.2
Cc1cc(N(C)C)nc(N2CCN(S(=O)(=O)c3ccc(-c4ccccc4)cc3)CC2)n1	inhibition	1.74
Cc1ccccc1NC(=O)Cc1csc2nc(-c3ccc(F)cc3)cn12	inhibition	6.49

# input for lookup
QUERY: Specify reported inhibition for the compound shown: COC[C@H]1C[C@@H]2CN(S(=O)(=O)c3ccccc3OC)C(C)[C@H]1N2C (stereo partly specified)
RESULT: 0.608

====

Recorded inhibition values for a group of compounds are listed next.
# Target entity: Ubiquitin carboxyl-terminal hydrolase isozyme L1 (Homo sapiens) (UniProt P09936)
# Assay method text: blocks human UCHL1 ubiquitin-rhodamine cleavage (AID 1645859)
# Condition set: purified UCHL1, Ub-rhodamine cleavage fluorescence; at 20 µM; hits give high values
Hit rate of the full screen: of about 47,000 compounds, about 95 (0.2%) were called active. This is one part of a sample in which actives are shown more often than they occur.
Your answer should be a plain number; it is taken to be in %.

Recorded inhibition, per entry:
Compound	Unit symbol	inhibition
O=c1c2ccccc2c(-c2nc(-c3ccncc3)no2)cn1-c1ccc(F)cc1	%	3.33
CN1Cc2ccccc2CC2(CC(Nc3ccc(C(=O)O)cc3)C2)C1=O (stereo unspecified)	%	-3.39
CC(C)(C)CN1CC[C@H](c2nnc(-c3cccnc3)o2)C1	%	-3.12
O=C(O)C1CCCN1Cc1c(-c2cccs2)nc2ccccn12 (stereo unspecified)	%	-7.21
Cc1ccc(C)c(S(=O)(=O)NCC(c2ccc3c(c2)CCN3C)N2CCCC2)c1 (stereo unspecified)	%	-2.82

Now look at this entry.
QUERY: Read off the recorded inhibition for CN(C)c1ncc(CN2CCN(C)C(c3ccccc3)C2)cn1 (stereo unspecified)
RESULT: -0.428
